- Test system: TOV112D
- Assay Overview: Growth inhibition of human TOV112D cells harbouring p53 R175H mutant incubated for 3 days by MTS assay
- Format: functional, cell-based
- Condition Context: 72 h
Strictly below 40 nM in EC50: Criterion met. Otherwise: Criterion not met.

Q) Dear colleague, could you confirm whether EC50 of `C/C(=N\Nc1nc2ccccc2o1)c1cc(OCCN(C)C)ccn1` falls below 40 nM? Thanks.
A) Criterion not met

* * *

- Assay Overview: Binding affinity to Zn(II)+ incubated for 60 mins using RhodZin-3 by fuorescence assay
- Condition Context: read-out: Kd
Each entry below carries its reported pKd.
Interpret pKd as the negative base-10 log of the concentration measured in mol/L.

INSERT INTO assay_data (smiles_text, val) VALUES
  ('C/C(=N\NC(=S)N(C)C)c1ccccn1', 7.59);

Q) Check the records and state pKd for `C/C(=N\NC(=S)N1CCC1)c1cccc(C)n1`
A) 7.32

Q) Check the records and state pKd for `C/C(=N\NC(=S)N1CCC1)c1cnccn1`
A) 7.00

Q) Check the records and state pKd for `O=C(O)CN(CC(=O)O)CC(=O)O`
A) 7.77

Q) Check the records and state pKd for `COCCOc1ccc2nc(N/N=C(\C)c3ccccn3)sc2c1`
A) 6.41

* * *

- Assay Overview: Binding affinity to Cu(II)+ using CuSO4
Measurement Label: pKd
Interpret pKd as the negative base-10 log of the concentration measured in mol/L.

Q) Check the records and state pKd for `C/C(=N\Nc1nc2ccccc2n1CCN1CCC(F)(F)C1)c1ccccn1`
A) 15.00

* * *

Each entry below carries its reported inhibition at 10 µM.
- Assay Target: UniProt Q12809
- Sequence (Q12809 whole entry): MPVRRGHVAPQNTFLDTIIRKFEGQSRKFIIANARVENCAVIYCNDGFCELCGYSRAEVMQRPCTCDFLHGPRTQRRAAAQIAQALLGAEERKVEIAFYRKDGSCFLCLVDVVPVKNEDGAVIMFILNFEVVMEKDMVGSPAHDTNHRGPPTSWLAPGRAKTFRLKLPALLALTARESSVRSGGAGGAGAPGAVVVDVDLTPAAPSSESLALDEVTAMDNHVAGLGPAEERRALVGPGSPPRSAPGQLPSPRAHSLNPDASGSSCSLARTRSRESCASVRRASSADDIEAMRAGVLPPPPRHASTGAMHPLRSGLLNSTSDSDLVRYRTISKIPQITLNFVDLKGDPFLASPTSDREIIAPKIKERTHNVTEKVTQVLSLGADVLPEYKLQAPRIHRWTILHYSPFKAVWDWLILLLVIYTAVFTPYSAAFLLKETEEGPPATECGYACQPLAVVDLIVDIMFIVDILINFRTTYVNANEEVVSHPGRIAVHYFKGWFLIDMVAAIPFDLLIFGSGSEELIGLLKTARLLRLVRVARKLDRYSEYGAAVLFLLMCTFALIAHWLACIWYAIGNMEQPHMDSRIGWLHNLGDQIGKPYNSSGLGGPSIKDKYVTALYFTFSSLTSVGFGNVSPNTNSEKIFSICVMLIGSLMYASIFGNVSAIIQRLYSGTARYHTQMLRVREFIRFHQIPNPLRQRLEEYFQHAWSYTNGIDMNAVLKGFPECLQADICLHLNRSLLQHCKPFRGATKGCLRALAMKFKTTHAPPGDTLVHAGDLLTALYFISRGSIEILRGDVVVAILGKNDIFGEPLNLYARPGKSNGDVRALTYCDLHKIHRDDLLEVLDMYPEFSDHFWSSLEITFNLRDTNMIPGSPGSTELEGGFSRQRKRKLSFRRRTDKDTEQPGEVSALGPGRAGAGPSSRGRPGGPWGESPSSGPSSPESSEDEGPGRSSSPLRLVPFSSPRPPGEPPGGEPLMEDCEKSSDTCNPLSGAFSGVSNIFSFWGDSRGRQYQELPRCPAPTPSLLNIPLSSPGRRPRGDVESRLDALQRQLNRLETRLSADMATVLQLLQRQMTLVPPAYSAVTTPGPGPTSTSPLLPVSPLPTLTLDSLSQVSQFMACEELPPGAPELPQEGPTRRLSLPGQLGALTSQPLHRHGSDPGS
- Assay Overview: Displacement of [3H]-dofetilide from human recombinant ERG at 10 uM relative to control
- Condition Context: probe [3H]-dofetilide
Please reply with the bare figure in % and do not write the unit itself.

Past entries and their recorded results:
INSERT INTO results (smiles_text, uom, val) VALUES
  ('C/C(=N\Nc1nc2ccccc2n1CCN1CCCC1)c1ccccn1', '%', 88),
  ('C/C(=N\Nc1nc2ccccc2n1C)c1ccccn1', '%', 86),
  ('C/C(=N\Nc1nc2ccccc2o1)c1cc(OCCN(C)C)ccn1', '%', 51);

Now turn to the next compound.
Q) Check the records and state inhibition at 10 µM for `C/C(=N\Nc1nc2ccccc2n1CCN1CCC(F)(F)C1)c1ccccn1`
A) 101

* * *

- Tested on: TOV112D
- Assay Overview: Growth inhibition of human TOV112D cells harbouring p53 R175H mutant incubated for 3 days by MTS assay
- Assay type: functional, cell-based
- Condition Context: 72 h
Each entry below carries its reported pEC50.
Interpret pEC50 as the negative base-10 log of the concentration measured in mol/L.

Past entries and their recorded results:
INSERT INTO results (smiles_text, measurement_label, val) VALUES
  ('C/C(=N\Nc1nc2ccccc2n1CCN1CCOCC1)c1ccccn1', 'pEC50', 7.29),
  ('C/C(=N\Nc1nc2ccccc2n1CCN(C)C)c1ccccn1', 'pEC50', 7.38),
  ('C/C(=N\Nc1nc2ccccc2n1C)c1ccccn1', 'pEC50', 8.40),
  ('C/C(=N\Nc1nc2ccccc2s1)c1ccccn1', 'pEC50', 7.26),
  ('C/C(=N\Nc1nc2ccccc2n1CCN1CCC(F)(F)C1)c1ccccn1', 'pEC50', 6.82);

Q) Check the records and state pEC50 for `C/C(=N\Nc1nccn1C)c1ccccn1`
A) 6.35

Q) Check the records and state pEC50 for `C/C(=N\NC(=S)N1CCC1)c1cc(N(C)C)ccn1`
A) 8.10

Q) Check the records and state pEC50 for `C/C(=N\NC(=S)N1CCC1)c1cccc(C)n1`
A) 6.88

* * *

- Test system: TOV112D
- Assay Overview: Growth inhibition of human TOV112D cells harbouring p53 R175H mutant incubated for 3 days by MTS assay
- Type: functional, cell-based
- Condition Context: 72 h
Each entry below carries its reported EC50.

Past entries and their recorded results:
INSERT INTO assay_data (smiles_text, val) VALUES
  ('C/C(=N\NC(=O)N1CCC1)c1ccccn1', '> 10000 nM'),
  ('C/C(=N\Nc1nc2ccccc2s1)c1cc(N(C)C)ccn1', '48 nM');

Q) Identify measured EC50 obtained with TOV112D for `C/C(=N\Nc1ccc2ccccc2n1)c1ccccn1` .
A) 141 nM

Q) Identify measured EC50 obtained with TOV112D for `C/C(=N\NC(=S)N(C)C)c1ccccn1` .
A) 1 nM

Q) Identify measured EC50 obtained with TOV112D for `C/C(=N\Nc1nc2ccccc2o1)c1ccccn1` .
A) 6 nM

Where do the numbers come from? From ChEMBL document CHEMBL4808163.
